- System: OVCAR-8
- Experiment: Growth inhibition of human OVCAR8 cells by sulforhodamine B assay
- Type: functional
- Test context: read-out: GI50
Measured property: GI50 (µM)

molecule=CC(C)=CC(=O)O[C@@H]1CC(C)(C)C[C@H]2C3=CC[C@@H]4[C@@]5(C)CCC(=O)C(C)(C)[C@@H]5CC[C@@]4(C)[C@]3(C)CC[C@@]12C(=O)O measured_property=GI50 result_value=3.81
molecule="CC(C)=CC(=O)O[C@@H]1CC(C)(C)C[C@H]2C3=CC[C@@H]4[C@@]5(C)CC[C@H](O)C(C)(C)[C@@H]5CC[C@@]4(C)[C@]3(C)CC[C@@]12C(=O)O [Reduced Lantadene B]" measured_property=GI50 result_value=4.68
molecule="C/C=C(/C)C(=O)O[C@@H]1CC(C)(C)C[C@H]2C3=CC[C@@H]4[C@@]5(C)CC[C@H](O)C(C)(C)[C@@H]5CC[C@@]4(C)[C@]3(C)CC[C@@]12C(=O)O [Reduced Lantadene A]" measured_property=GI50 result_value=1.92
molecule=CC1(C)C[C@@H](O)[C@]2(C(=O)O)CC[C@]3(C)C(=CC[C@@H]4[C@@]5(C)C/C(=C\C=C\c6ccccc6)C(=O)C(C)(C)[C@@H]5CC[C@]43C)[C@@H]2C1 measured_property=GI50 result_value=3.41
molecule="C/C=C(/C)C(=O)O[C@@H]1CC(C)(C)C[C@H]2C3=CC[C@@H]4[C@@]5(C)CCC(=O)C(C)(C)[C@@H]5CC[C@@]4(C)[C@]3(C)CC[C@@]12C(=O)O [LANTADENE A]" measured_property=GI50 result_value=4.97
